Data provenance is ChEMBL document CHEMBL6071177.

# Tested on: Schistosoma mansoni
# EXPERIMENT SUMMARY: Anti-schistosomal activity against adult Schistosoma mansoni assessed as parasite viability at 10 uM measured after 3 days relative to control
# Assay type: functional
# SETUP CONDITIONS: time 3 day
EXPERIMENTAL READOUT: Activity (%)
Report the value in % with no unit label.

Below: 6 molecules and their reported Activity.
CCOC(=O)c1ccc2c(c1)C(=O)CCN1C(=O)c3ccccc3C1C(=O)N2 (stereo not drawn) = 38
O=C1CCn2c(nc3ccccc3c2=O)C(=O)Nc2ccccc21 = 20
O=C1CCN2C(=O)c3c(F)c(F)c(F)c(F)c3C2C(=O)Nc2ccccc21 (stereo not drawn) = 30
O=C1CCN2C(=O)c3cc(F)c(F)cc3C2C(=O)Nc2ccccc21 (stereo not drawn) = 34
CO/N=C1/CCN2C(=O)c3ccccc3C2C(=O)Nc2ccccc21 (stereo not drawn) = 41
COc1cc2c(cc1OC)C1C(=O)Nc3ccccc3C(=O)CCN1C2=O (stereo not drawn) = 38

Q) Please look at O=C1c2ccccc2C23C(=O)Nc4ccccc4C2(O)CCN13 (stereo not drawn) and tell me its recorded Activity on Schistosoma mansoni.
A) 48

Q) Please look at CC12C(=O)Nc3ccccc3C(=O)CCN1C(=O)c1ccccc12 (stereo not drawn) and tell me its recorded Activity on Schistosoma mansoni.
A) 35

Q) Please look at O=C1CCN2C(C(=O)Nc3ccccc31)c1ccccc1S2(=O)=O (stereo not drawn) and tell me its recorded Activity on Schistosoma mansoni.
A) 44

Q) Please look at O=C1C[C@@H](CO)N2C(=O)c3ccccc3C2C(=O)Nc2ccccc21 (stereo partly drawn) and tell me its recorded Activity on Schistosoma mansoni.
A) 47

Q) Please look at O=C1CCN2C(=O)c3ccccc3C2C(=O)Nc2ccc(F)cc21 (stereo not drawn) and tell me its recorded Activity on Schistosoma mansoni.
A) 40

Q) Please look at COC(=O)[C@@H]1CC(=O)c2ccccc2NC(=O)C2c3ccccc3C(=O)N21 (stereo partly drawn) and tell me its recorded Activity on Schistosoma mansoni.
A) 27

Q) Please look at COC1CCN2C(=O)c3ccccc3C2C(=O)Nc2ccccc21 (stereo not drawn) and tell me its recorded Activity on Schistosoma mansoni.
A) 31

Q) Please look at CN1C(=O)C2c3ccccc3C(=O)N2CCC(=O)c2ccccc21 (stereo not drawn) and tell me its recorded Activity on Schistosoma mansoni.
A) 39

Q) Please look at O=C1CCN2C(=O)c3ccccc3C2C(=O)Nc2ccc(Cl)cc21 (stereo not drawn) and tell me its recorded Activity on Schistosoma mansoni.
A) 40

Q) Please look at O=C1CCN2C(=O)c3cc(Cl)c(Cl)cc3C2C(=O)Nc2ccccc21 (stereo not drawn) and tell me its recorded Activity on Schistosoma mansoni.
A) 40

Q) Please look at O=C1CCN2C(=O)c3ccccc3C2C(=O)Nc2cc(F)ccc21 (stereo not drawn) and tell me its recorded Activity on Schistosoma mansoni.
A) 39

Q) Please look at O=C1CCN2C(=O)[C@H]3CCCC[C@H]3C2C(=O)Nc2ccccc21 (stereo partly drawn) and tell me its recorded Activity on Schistosoma mansoni.
A) 25

Q) Please look at O=C1CCN2C(=O)CCC2C(=O)Nc2ccccc21 (stereo not drawn) and tell me its recorded Activity on Schistosoma mansoni.
A) 31

Q) Please look at O=C1CCN2C(=O)c3ccccc3C2C(=O)Nc2cc(F)cc(F)c21 (stereo not drawn) and tell me its recorded Activity on Schistosoma mansoni.
A) 40

Q) Please look at O=C1CCN2C(=O)c3cc4ccccc4cc3C2C(=O)Nc2ccccc21 (stereo not drawn) and tell me its recorded Activity on Schistosoma mansoni.
A) 40

Q) Please look at O=C1CCN2C(=O)c3ccccc3C2C(=O)Nc2ccccc21 (stereo not drawn) and tell me its recorded Activity on Schistosoma mansoni.
A) 61

Q) Please look at O=C1Nc2ccccc2CCCN2C(=O)c3ccccc3C12 (stereo not drawn) and tell me its recorded Activity on Schistosoma mansoni.
A) 31

* * *

# EXPERIMENT SUMMARY: Solubility of compound in phosphate buffer at pH 6.5 by nephelometry
# Assay type: physicochemical
EXPERIMENTAL READOUT: solubility kinetic (µM)
Report the value in µM with no unit label.

O=C1CCN2C(=O)c3c(F)c(F)c(F)c(F)c3C2C(=O)Nc2ccccc21 (stereo not drawn) = 160
O=C1CCN2C(C(=O)Nc3ccccc31)c1ccccc1S2(=O)=O (stereo not drawn) = 160
O=C1CCN2C(=O)c3cc(Cl)c(Cl)cc3C2C(=O)Nc2ccccc21 (stereo not drawn) = 160
O=C1CCN2C(=O)c3cc(F)c(F)cc3C2C(=O)Nc2ccccc21 (stereo not drawn) = 160
COC1CCN2C(=O)c3ccccc3C2C(=O)Nc2ccccc21 (stereo not drawn) = 160
CCOC(=O)c1ccc2c(c1)C(=O)CCN1C(=O)c3ccccc3C1C(=O)N2 (stereo not drawn) = 40
O=c1c2c([nH]c3ccccc13)C1c3ccccc3S(=O)(=O)N1C2 (stereo not drawn) = 40
CC12C(=O)Nc3ccccc3C(=O)CCN1C(=O)c1ccccc12 (stereo not drawn) = 160
O=C1c2ccccc2C23C(=O)Nc4ccccc4C2(O)CCN13 (stereo not drawn) = 40

Q) Consider the compound O=C1CCN2C(=O)c3ccccc3C2C(=O)Nc2cc(F)ccc21 (stereo not drawn) and give its recorded solubility kinetic.
A) 160

* * *

# EXPERIMENT SUMMARY: Intrinsic clearance in mouse liver microsomes
Lab note: anything with CLH below 80 µL/min/mg is marked Criterion met; values at 80 µL/min/mg or higher are marked Criterion not met.

Q) Check if CLH falls below 80 µL/min/mg for O=C1CCN2C(=O)c3ccccc3C2C(=O)Nc2ccc(Cl)cc21 (stereo unspecified) .
A) Criterion not met

Q) Check if CLH falls below 80 µL/min/mg for CCOC(=O)c1ccc2c(c1)C(=O)CCN1C(=O)c3ccccc3C1C(=O)N2 (stereo unspecified) .
A) Criterion not met

Q) Check if CLH falls below 80 µL/min/mg for O=C1CCN2C(=O)CCC2C(=O)Nc2ccccc21 (stereo unspecified) .
A) Criterion met

Q) Check if CLH falls below 80 µL/min/mg for CC12C(=O)Nc3ccccc3C(=O)CCN1C(=O)c1ccccc12 (stereo unspecified) .
A) Criterion not met

Q) Check if CLH falls below 80 µL/min/mg for CN1C(=O)C2c3ccccc3C(=O)N2CCC(=O)c2ccccc21 (stereo unspecified) .
A) Criterion not met

Q) Check if CLH falls below 80 µL/min/mg for O=C1CCN2C(=O)c3cc4ccccc4cc3C2C(=O)Nc2ccccc21 (stereo unspecified) .
A) Criterion not met

Q) Check if CLH falls below 80 µL/min/mg for COC(=O)[C@@H]1CC(=O)c2ccccc2NC(=O)C2c3ccccc3C(=O)N21 (stereo partly specified) .
A) Criterion not met

Q) Check if CLH falls below 80 µL/min/mg for O=C1CCN2C(=O)c3ccccc3C2C(=O)Nc2ccc(F)cc21 (stereo unspecified) .
A) Criterion not met

Q) Check if CLH falls below 80 µL/min/mg for COC1CCN2C(=O)c3ccccc3C2C(=O)Nc2ccccc21 (stereo unspecified) .
A) Criterion not met

Q) Check if CLH falls below 80 µL/min/mg for O=C1CCN2C(=O)[C@H]3CCCC[C@H]3C2C(=O)Nc2ccccc21 (stereo partly specified) .
A) Criterion met

Q) Check if CLH falls below 80 µL/min/mg for O=C1CCN2C(=O)c3ccccc3C2C(=O)Nc2cc(F)cc(F)c21 (stereo unspecified) .
A) Criterion met

Q) Check if CLH falls below 80 µL/min/mg for O=C1Nc2ccccc2C2(O)CCN3C12c1ccccc1S3(=O)=O (stereo unspecified) .
A) Criterion met

Q) Check if CLH falls below 80 µL/min/mg for COc1cc2c(cc1OC)C1C(=O)Nc3ccccc3C(=O)CCN1C2=O (stereo unspecified) .
A) Criterion met

Q) Check if CLH falls below 80 µL/min/mg for O=C1c2ccccc2C23C(=O)Nc4ccccc4C2(O)CCN13 (stereo unspecified) .
A) Criterion met

Q) Check if CLH falls below 80 µL/min/mg for O=C1CCN2C(=O)c3ccccc3C2C(=O)Nc2ccccc21 (stereo unspecified) .
A) Criterion not met

* * *

# EXPERIMENT SUMMARY: Intrinsic clearance in human liver microsomes
Below, each entry is listed alongside its reported CLH.
Report the value in µL/min/mg with no unit label.

O=C1CCN2C(=O)c3ccccc3C2C(=O)Nc2cc(F)cc(F)c21 (stereo not given) = 21.5
COc1ccc2c(c1)C(=O)CCN1C(=O)c3ccccc3C1C(=O)N2 (stereo not given) = 57.1
O=C1CCN2C(=O)CCC2C(=O)Nc2ccccc21 (stereo not given) = 17
O=C1CCN2C(=O)c3cc4ccccc4cc3C2C(=O)Nc2ccccc21 (stereo not given) = 97.4
COC1CCN2C(=O)c3ccccc3C2C(=O)Nc2ccccc21 (stereo not given) = 23.2
O=C1C[C@@H](CO)N2C(=O)c3ccccc3C2C(=O)Nc2ccccc21 (stereo not given in full) = 19.6
O=C1CCn2c(nc3ccccc3c2=O)C(=O)Nc2ccccc21 = 21.7
CO/N=C1/CCN2C(=O)c3ccccc3C2C(=O)Nc2ccccc21 (stereo not given) = 13.2

Please find the next compound below.
Q) Consider the compound CCOC(=O)c1ccc2c(c1)C(=O)CCN1C(=O)c3ccccc3C1C(=O)N2 (stereo not given) and give its recorded CLH.
A) 55.6
